MEASUREMENT_SETUP: in methanol, 278.15 K
ASSAY_READOUT: solubility (mole fraction)

| COMPOUND_SMILES | NUMERIC_RESULT |
| --- | --- |
| COC(=O)Nc1nc2ccccc2[nH]1 | 3.23e-05 |

====

MEASUREMENT_SETUP: in DMF, 308.15 K

| COMPOUND_SMILES | solubility (mole fraction) |
| --- | --- |
| COC(=O)Nc1nc2ccccc2[nH]1 | 0.00128 |

====

MEASUREMENT_SETUP: in water, 313.15 K
ASSAY_READOUT: solubility (mole fraction)

| COMPOUND_SMILES | NUMERIC_RESULT |
| --- | --- |
| COC(=O)Nc1nc2ccccc2[nH]1 | 1.21e-06 |

====

MEASUREMENT_SETUP: in water, 288.15 K

| COMPOUND_SMILES | solubility (mole fraction) |
| --- | --- |
| COC(=O)Nc1nc2ccccc2[nH]1 | 4.91e-07 |

====

MEASUREMENT_SETUP: in water, 318.15 K

| COMPOUND_SMILES | solubility (mole fraction) |
| --- | --- |
| COC(=O)Nc1nc2ccccc2[nH]1 | 1.43e-06 |

====

MEASUREMENT_SETUP: in methanol, 308.15 K

| COMPOUND_SMILES | solubility (mole fraction) |
| --- | --- |
| COC(=O)Nc1nc2ccccc2[nH]1 | 0.000121 |

====

MEASUREMENT_SETUP: in water, 278.15 K

| COMPOUND_SMILES | solubility (mole fraction) |
| --- | --- |
| COC(=O)Nc1nc2ccccc2[nH]1 | 3.3e-07 |

====

MEASUREMENT_SETUP: in DMF, 318.15 K
ASSAY_READOUT: solubility (mole fraction)

| COMPOUND_SMILES | NUMERIC_RESULT |
| --- | --- |
| COC(=O)Nc1nc2ccccc2[nH]1 | 0.00148 |

====

MEASUREMENT_SETUP: in water, 303.15 K

| COMPOUND_SMILES | solubility (mole fraction) |
| --- | --- |
| COC(=O)Nc1nc2ccccc2[nH]1 | 8.59e-07 |

====

MEASUREMENT_SETUP: in n-propanol, 283.15 K

| COMPOUND_SMILES | solubility (mole fraction) |
| --- | --- |
| COC(=O)Nc1nc2ccccc2[nH]1 | 4.97e-06 |

====

MEASUREMENT_SETUP: in water, 308.15 K

| COMPOUND_SMILES | solubility (mole fraction) |
| --- | --- |
| COC(=O)Nc1nc2ccccc2[nH]1 | 1.02e-06 |

====

MEASUREMENT_SETUP: in n-propanol, 293.15 K

| COMPOUND_SMILES | solubility (mole fraction) |
| --- | --- |
| COC(=O)Nc1nc2ccccc2[nH]1 | 1.24e-05 |

====

MEASUREMENT_SETUP: in DMF, 283.15 K

| COMPOUND_SMILES | solubility (mole fraction) |
| --- | --- |
| COC(=O)Nc1nc2ccccc2[nH]1 | 0.000861 |

====

MEASUREMENT_SETUP: in methanol, 298.15 K

| COMPOUND_SMILES | solubility (mole fraction) |
| --- | --- |
| COC(=O)Nc1nc2ccccc2[nH]1 | 7.95e-05 |
